# experimental.protocol: Cmax in tissue cage fluid of Wistar rat infected with methicillin-resistant Staphylococcus aureus HUSA 304 at 100 mg/kg/day, ip
# Assay type: ADME, organism-based, Interstitial fluid
# Design: dose 100 mg/kg/day, route intraperitoneal
property.measured: Cmax (ng/mL)
Give bare numbers, in ng/mL.

// Cmax value for "CCCCCCCCCC(=O)N[C@@H](Cc1c[nH]c2ccccc12)C(=O)N[C@H](CC(N)=O)C(=O)N[C@@H](CC(=O)O)C(=O)N[C@@H]1C(=O)NCC(=O)N[C@@H](CCCN)C(=O)N[C@@H](CC(=O)O)C(=O)N[C@H](C)C(=O)N[C@@H](CC(=O)O)C(=O)NCC(=O)N[C@H](CO)C(=O)N[C@@H]([C@H](C)CC(=O)O)C(=O)N[C@@H](CC(=O)c2ccccc2N)C(=O)O[C@@H]1C" : 40000

----------
# experimental.protocol: AUC (0 to 24 hrs) in serum of human infected with methicillin-resistant Staphylococcus aureus HUSA 304 at 8 mg/kg/day, […]
# Format: ADME, organism-based
# Parameters: dose 8 mg/kg/day, time < 24 hr
property.measured: AUC at 24 h (µg·h/mL)
One number for each entry, in µg·h/mL.

"CCCCCCCCCC(=O)N[C@@H](Cc1c[nH]c2ccccc12)C(=O)N[C@H](CC(N)=O)C(=O)N[C@@H](CC(=O)O)C(=O)N[C@@H]1C(=O)NCC(=O)N[C@@H](CCCN)C(=O)N[C@@H](CC(=O)O)C(=O)N[C@H](C)C(=O)N[C@@H](CC(=O)O)C(=O)NCC(=O)N[C@H](CO)C(=O)N[C@@H]([C@H](C)CC(=O)O)C(=O)N[C@@H](CC(=O)c2ccccc2N)C(=O)O[C@@H]1C" has a reported AUC at 24 h of 773

----------
# experimental.protocol: Cmax in serum of human infected with methicillin-resistant Staphylococcus aureus HUSA 304 at 6 mg/kg/day, […]
# Assay type: ADME, organism-based
# Parameters: dose 6 mg/kg/day
property.measured: Cmax (µg/mL)
Answers are plain numbers, in µg/mL.

Entry "CCCCCCCCCC(=O)N[C@@H](Cc1c[nH]c2ccccc12)C(=O)N[C@H](CC(N)=O)C(=O)N[C@@H](CC(=O)O)C(=O)N[C@@H]1C(=O)NCC(=O)N[C@@H](CCCN)C(=O)N[C@@H](CC(=O)O)C(=O)N[C@H](C)C(=O)N[C@@H](CC(=O)O)C(=O)NCC(=O)N[C@H](CO)C(=O)N[C@@H]([C@H](C)CC(=O)O)C(=O)N[C@@H](CC(=O)c2ccccc2N)C(=O)O[C@@H]1C" , Cmax reported as 95

----------
# experimental.protocol: Cmax in serum of Wistar rat infected with methicillin-resistant Staphylococcus aureus HUSA 304 at 100 mg/kg/day, ip for 7 days
# Format: ADME, organism-based
# Parameters: dose 100 mg/kg/day, route intraperitoneal
property.measured: Cmax (µg/mL)
One number for each entry, in µg/mL.

Noted for "CCCCCCCCCC(=O)N[C@@H](Cc1c[nH]c2ccccc12)C(=O)N[C@H](CC(N)=O)C(=O)N[C@@H](CC(=O)O)C(=O)N[C@@H]1C(=O)NCC(=O)N[C@@H](CCCN)C(=O)N[C@@H](CC(=O)O)C(=O)N[C@H](C)C(=O)N[C@@H](CC(=O)O)C(=O)NCC(=O)N[C@H](CO)C(=O)N[C@@H]([C@H](C)CC(=O)O)C(=O)N[C@@H](CC(=O)c2ccccc2N)C(=O)O[C@@H]1C" : its Cmax reads 140

Where do these numbers come from? They come from ChEMBL document CHEMBL1649229.
